- Assay Comment: In vivo antitumor testing, HCT116 xenograft
- Parameters: species or system nude mice
- Experimental Setup: nude, mouse, in vivo, iv, Compound 1 IV, q4dx3; read-out: OD (optimal dose or MTD)
Quantity Name: MTD (mg/kg)
Answer with a number only, understood to be in mg/kg.

Consider C/C(=C\c1csc(C)n1)[C@@H]1C[C@@H]2O[C@]2(C)CCC[C@H](C)[C@H](O)[C@@H](C)C(=O)C(C)(C)[C@@H](O)CC(=O)N1 (relative stereo) . Its measured MTD is 10

###

- Assay Comment: In vivo antitumor testing, HCT116 xenograft
- Parameters: species or system nude mice
- Experimental Setup: nude, mouse, in vivo, po, Compound 1 PO, q2dx5; read-out: OD (optimal dose or MTD)
Quantity Name: MTD (mg/kg)
Answer with a number only, understood to be in mg/kg.

Consider C/C(=C\c1csc(C)n1)[C@@H]1C[C@@H]2O[C@]2(C)CCC[C@H](C)[C@H](O)[C@@H](C)C(=O)C(C)(C)[C@@H](O)CC(=O)N1 (relative stereo) . Its measured MTD is 90
